Molecular target: T1, Human epidermal growth factor (EGF)-like domain multiple 6 (EGFL6) protein (human, UniProt Q8IUX8 22-553)
T1 construct: Secreted protein; also called human EGFL6; recombinant human EGFL6
T1 sequence (looked up): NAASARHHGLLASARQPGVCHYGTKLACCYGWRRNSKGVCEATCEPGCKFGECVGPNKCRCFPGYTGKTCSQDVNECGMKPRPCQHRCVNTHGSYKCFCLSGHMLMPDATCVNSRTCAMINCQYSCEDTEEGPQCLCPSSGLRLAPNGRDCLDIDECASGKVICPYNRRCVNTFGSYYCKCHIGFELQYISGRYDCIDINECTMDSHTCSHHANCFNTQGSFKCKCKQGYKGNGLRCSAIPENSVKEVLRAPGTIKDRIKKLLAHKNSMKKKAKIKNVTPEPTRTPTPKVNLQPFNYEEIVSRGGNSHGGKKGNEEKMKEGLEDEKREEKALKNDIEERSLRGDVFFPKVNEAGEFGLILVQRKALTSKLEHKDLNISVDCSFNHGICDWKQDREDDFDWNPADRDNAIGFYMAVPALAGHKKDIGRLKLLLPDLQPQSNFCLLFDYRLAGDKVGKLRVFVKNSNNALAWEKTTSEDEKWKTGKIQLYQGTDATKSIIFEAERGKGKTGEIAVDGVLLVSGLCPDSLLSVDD
Experiment: ELISA titration on coated EGFL6, 4-parameter curve fit
The entries below come with measured EC50 values attached.
Respond with the bare value in ng/mL.

Worked cases, answers included:
>>> experimental_result("E1-142 monoclonal antibody (antibody, V domains shown, Rabbit variable domains) VH: QSLEESGGDLVKPGASLTLTCTASGFTINNYNINWVRQAPGKGLEWIARIWNGDGSTYYASWAKGRFTISKTSSTTVTLQMTSLTAADTATYFCARNFNLWGPGTLVTISS VL: ELVLTQTPSPVSAAVGGTVTINCQSSASVYSNNYLSWFQQKPGQPPKPLIYYASTLASGVPSRFKGSGSGTQFTLTISDVQCDDAATYYCAGDYSSSSDMCIFGGGTELEIK")
1.91
>>> experimental_result("E2-135 monoclonal antibody (antibody, V domains shown, Rabbit variable domains; also called mAb135) VH: QSVKESEGDLVKPGASLTLTCKASGFDFSSSYFMCWVRQAPGRGLEWIACIYTVISRKTYYASWAKGRFTISKTSATTVDLQMTSLTAADTATYFCARSATIERLDLWGQGTLVTVSS VL: ELDLTQTPSPVSAPVGGTVTINCQASESVYNNYRLSWYQQKPGQPPKLLIYAASTLASGVPSRFKGSGSGTQFTLAISDVVCDDAATYYCVGYKSGYIDSIPFGGGTEVVVK")
0.44
>>> experimental_result("E2-93 monoclonal antibody (antibody, V domains shown, Rabbit variable domains; also called Mab #93; mAb93) VH: QSVKESEGGLVQPEGSLTLTCKASGFSFSSYGVNWVRQAPGKGLEWIAYIGLSSEITYYAGWAKGRFTISKPSSTTVTLQMTSLTAADTATYFCVRDLYHSNGLWGPGTLVTISS VL: ELDLTQTPSPVSAAVGGTVTVSCQASESVYNNNRLSWYQQKPGQPPKLLIYYASTLASGVPSRFSGSGSGTQFTLTISSVQCADAATYYCVAFKGYGTDGNAFGGGTEVEIK")
0.37

input: Can you share its EC50? I mean this binder: E1-34 monoclonal antibody (antibody, V domains shown, Rabbit variable domains) VH: EQSVKESGGGLVQPEGSLTLTCTASGFSFSSIYWICWVRQAPGKGLELIACIQITSGITYYASWAKGRFTISKMSSTTVTLQMTSLTVADTATYFCGRRGYGAYAGTGASDLWGPGTLVTVSS VL: ELDLTQTASSVSAAVGGTVTINCQSSQSVYNNNNLAWYQQKPGQPPKLLIYEASKLASGVPSRFKGSGSGTQFTLTISGVQCDDAATYYCAGGYAGYIWAFGGGTEVVVK
output: 0.78
